FYI, the data here is from paper PMC5596814.

assay: in vivo; conditions: male, hCYP1A1/1A2 humanized, mouse, in vivo, po, 40 mg/kg, Cmax, hCYP1A1/1A2 mice, 3-MC pretreatment (40 mg/kg i.p. daily for 3 days), ponatinib 40 mg/kg oral gavage
EXPERIMENTAL_ENDPOINT: Cmax
Record the result as a number with its unit.

*Q* Please report the recorded Cmax for Cc1ccc(C(=O)Nc2ccc(CN3CCN(C)CC3)c(C(F)(F)F)c2)cc1C#Cc1cnc2cccnn12 .
*A* 620 ng/mL

====

assay: in vivo; settings: male, hCYP1A1/1A2 humanized, mouse, in vivo, po, 40 mg/kg, t1/2, hCYP1A1/1A2 mice, vehicle pretreatment, ponatinib 40 mg/kg oral gavage
EXPERIMENTAL_ENDPOINT: half-life (h)
Field format: number, assumed h, no unit text.

*Q* Please report the recorded half-life for Cc1ccc(C(=O)Nc2ccc(CN3CCN(C)CC3)c(C(F)(F)F)c2)cc1C#Cc1cnc2cccnn12 [ponatinib] .
*A* 13.9
